melting point for assorted compounds

Known results for compounds:
# compound, melting point
measured = [
    ("CC(O)CCSC(=S)Nc1ccc(Cl)cn1 (stereo unspecified)", "120 °C"),
    ("COc1cc2oc(=O)c3c(c2cc1[N+](=O)[O-])CCN(CC(C)=O)C3", "222 to 225 °C"),
    ("CC(C)CC(CP(=O)(O)CNC(=O)c1ccccc1)C(=O)N(c1ccc(-c2ccccc2)cc1)[C@@H](C)C(=O)O (stereo partly specified)", "148 to 150 °C"),
    ("CC(C)(C)OC(=O)N(N)Cc1ccc(-c2ccccc2)cc1", "84 to 85 °C"),
    ("O=C(O)CCCC=C1CCCCCCCCCCC1", "70 to 72 °C"),
]

Task: I have this compound here, `COc1ccccc1N1CCN(CCCCOc2ccc(-c3cn4ccccc4n3)cc2)CC1` , and I need its recorded melting point.
Output: 144 to 145 °C

Task: Reported melting point, compound `O=S(=O)(c1ccccc1)N1CCC(C(c2ccc(F)cc2)c2ccc(F)cc2)CC1` : ____
Output: 180 to 184 °C

Task: GET /values?readout=melting point&item= `Nc1cccc2c1=NC(=O)C=2c1ccccc1`
Output: 226 to 230 °C

Task: Data request, read-out melting point, for COC(=O)CC1Cc2ccc(OC)cc2NC1=O (stereo unspecified)
Output: 152 to 155 °C

Task: For `CSc1cc2nc[nH]c(=O)c2s1` , what is its reported melting point?
Output: 216 to 218 °C

Task: Request the reported melting point associated with CNC1(c2ccccc2Cl)C(=O)N(S(=O)(=O)c2ccc(NC(=O)c3cccnc3)cc2)c2ccc(Cl)cc21 (stereo unspecified)
Output: 228 °C

Task: # get_value(readout='melting point', item= CC(=O)OCCC1Cc2c(C)c(OCc3ccccc3)c(C)c(C)c2O1 (racemic) )
Output: 80 to 82 °C

Task: Request the reported melting point associated with `Cn1cc(-c2cccc(N3Cc4cc(C(C)(C)C)ccc4C3=O)c2CO)cc(Nc2cc(C3CC3)n[nH]2)c1=O`
Output: 178 to 180 °C

These entries and their values trace back to a melting point compilation (Tetko et al.; mined from patent text by program, amines drawn as free bases though some values may be those of a salt).
